Let's look at some sequences and their measured shrunken log2 fold change.
# Tested on: Escherichia coli TOP10;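 also: peptides expressed intracellularly from a pBAD plasmid library in pooled LB shake-flask culture, induced with 0.3% L-arabinose, DNA abundance read by NGS, three biological replicates, DESeq2 with apeglm shrinkage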
# procedure-text: shrunken log2 fold change of peptide-encoding DNA abundance (4.5 h post-induction vs induction); higher = less antimicrobial activity (less host growth inhibition)
# assay-context: time post-induction: 4.5 h; library: site-saturation at positions 5, 18, 19, 20
Respond numerically, and do not add a unit to the figure.

> print(dat)
               biosequence  reported
1  RRIRTRPPRLPRPRPRPFEPPRP    -0.231
2  RRIRSRPPRLPRPRPRPQFLPRP    -0.394
3  RRIRGRPPRLPRPRPRPFSYPRP    0.0924

Input RRIRKRPPRLPRPRPRPEEAPRP . Output shrunken log2 fold change: 3.85

Input RRIRQRPPRLPRPRPRPYFIPRP . Output shrunken log2 fold change: -1.23

Input RRIRTRPPRLPRPRPRPCSLPRP . Output shrunken log2 fold change: -0.128

Input RRIRGRPPRLPRPRPRPFSAPRP . Output shrunken log2 fold change: 0.0503
